Biological target: HNF4alpha2 (COS-7 nuclear extract) (Homo sapiens, UniProt P41235 1-474)
Sequence: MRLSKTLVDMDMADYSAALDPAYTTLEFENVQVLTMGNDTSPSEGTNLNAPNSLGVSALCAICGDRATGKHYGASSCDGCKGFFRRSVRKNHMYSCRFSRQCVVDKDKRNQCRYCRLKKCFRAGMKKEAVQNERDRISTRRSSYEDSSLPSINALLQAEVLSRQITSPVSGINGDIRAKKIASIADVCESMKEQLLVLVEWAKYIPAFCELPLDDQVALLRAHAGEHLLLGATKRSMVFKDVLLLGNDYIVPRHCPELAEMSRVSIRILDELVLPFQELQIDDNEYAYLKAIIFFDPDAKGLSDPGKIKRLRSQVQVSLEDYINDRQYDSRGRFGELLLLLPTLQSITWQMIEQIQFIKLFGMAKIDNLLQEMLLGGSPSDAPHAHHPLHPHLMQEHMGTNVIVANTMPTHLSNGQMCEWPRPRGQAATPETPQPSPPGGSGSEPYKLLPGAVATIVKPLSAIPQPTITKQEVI
Assay: protein-binding microarray; COS-7 nuclear extract on double-stranded Agilent 4x180k PBM; binding buffer, salt, pH and temperature not given in the material; high values mean tight binding
Settings: chain copies: 2; label: 3' end of strand 1 on the slide; dsDNA, one strand shown
In all, about 18,000 sequences were measured (“log2 normalized intensity”: median about 0.39, highest 2% from about 6.6 on). Only a selection was taken, and the highest values are over-represented in it overall.
Reported binding signal values are given for each entry in this list.

{"Biosequence": "AGGGAGGGGAGAGGGGGTTAAAGGTTATTTGCCTAGGGAGATTAGAGTATCGGTCGA", "Measurement units": "log2 normalized intensity", "binding signal": 4.97}
{"Biosequence": "TCAGAGATCAAGATACAGGTCAGACCCTGGGCCTAGGGAGATTAGAGTATCGGTCGA", "Measurement units": "log2 normalized intensity", "binding signal": 0.993}
{"Biosequence": "AAAGGCGTTTGCTCCCATCCCCCCAAAGGCGCCTAGGGAGATTAGAGTATCGGTCGA", "Measurement units": "log2 normalized intensity", "binding signal": 4.99}
{"Biosequence": "GGGCATGGACTTTGGAATTAAGGAGATTTGGCCTAGGGAGATTAGAGTATCGGTCGA", "Measurement units": "log2 normalized intensity", "binding signal": 4.96}
{"Biosequence": "CTTCCCAGCTGCTGGTCAAAGGGCATTACTGCCTAGGGAGATTAGAGTATCGGTCGA", "Measurement units": "log2 normalized intensity", "binding signal": 4.94}

----------
Molecular target: HNF4alpha2 (COS-7 nuclear extract) (Homo sapiens, UniProt P41235 1-474)
Sequence: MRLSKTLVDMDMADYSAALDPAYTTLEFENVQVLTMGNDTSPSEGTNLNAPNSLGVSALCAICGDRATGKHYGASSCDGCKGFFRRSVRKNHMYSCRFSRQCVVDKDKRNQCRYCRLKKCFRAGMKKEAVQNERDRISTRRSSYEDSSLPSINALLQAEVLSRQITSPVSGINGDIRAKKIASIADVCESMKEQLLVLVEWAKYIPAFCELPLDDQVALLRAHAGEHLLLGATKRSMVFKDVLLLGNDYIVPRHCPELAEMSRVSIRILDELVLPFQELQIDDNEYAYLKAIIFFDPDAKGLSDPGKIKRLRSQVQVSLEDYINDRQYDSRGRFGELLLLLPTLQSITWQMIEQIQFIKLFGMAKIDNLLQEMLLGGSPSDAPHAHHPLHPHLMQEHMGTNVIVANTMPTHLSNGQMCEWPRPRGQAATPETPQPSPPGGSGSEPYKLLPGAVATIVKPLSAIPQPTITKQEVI
Experiment: protein-binding microarray; COS-7 nuclear extract on double-stranded Agilent 4x180k PBM; binding buffer, salt, pH and temperature not given in the material; high values mean tight binding
Settings: chain copies: 2; label: 3' end of strand 1 on the slide; dsDNA, one strand shown
In all, about 18,000 sequences were measured (“log2 normalized intensity”: median about 0.39, highest 2% from about 6.6 on). The list comes from a sample in which the highest values are over-represented; it also holds close analogues and randomly drawn sequences.
Reported binding signal values are given for each entry in this list.

{"Biosequence": "AACTTTGTTTGAGTTCCAAAGTCCATGTTCGCCTAGGGAGATTAGAGTATCGGTCGA", "System under test": "HNF4alpha2 (COS-7 nuclear extract) (Homo sapiens, UniProt P41235 1-474)", "binding signal, log2 normalized intensity": 6.61}
{"Biosequence": "ATTCCAAAAAGCTTTTGTCATGACCTTCGCGCCTAGGGAGATTAGAGTATCGGTCGA", "System under test": "HNF4alpha2 (COS-7 nuclear extract) (Homo sapiens, UniProt P41235 1-474)", "binding signal, log2 normalized intensity": 4.71}
{"Biosequence": "GGAAAGAACAGGTCAAAGGTCAGTTTCTTTGCCTAGGGAGATTAGAGTATCGGTCGA", "System under test": "HNF4alpha2 (COS-7 nuclear extract) (Homo sapiens, UniProt P41235 1-474)", "binding signal, log2 normalized intensity": 7.28}
{"Biosequence": "GGTGGACTTTGTAGCTCAAACAGTCTAAAAGCCTAGGGAGATTAGAGTATCGGTCGA", "System under test": "HNF4alpha2 (COS-7 nuclear extract) (Homo sapiens, UniProt P41235 1-474)", "binding signal, log2 normalized intensity": 2.3}
{"Biosequence": "TTGTATGTCCAAGGGTCACTCGACATTCATGCCTAGGGAGATTAGAGTATCGGTCGA", "System under test": "HNF4alpha2 (COS-7 nuclear extract) (Homo sapiens, UniProt P41235 1-474)", "binding signal, log2 normalized intensity": 3.02}
{"Biosequence": "AAGGGCAGCAGTAACCCCCCAGGAGCGAGTGCCTAGGGAGATTAGAGTATCGGTCGA", "System under test": "HNF4alpha2 (COS-7 nuclear extract) (Homo sapiens, UniProt P41235 1-474)", "binding signal, log2 normalized intensity": 3.54}
{"Biosequence": "TTGTTTAGGTACAAAGTCCATTGGAAGCCAGCCTAGGGAGATTAGAGTATCGGTCGA", "System under test": "HNF4alpha2 (COS-7 nuclear extract) (Homo sapiens, UniProt P41235 1-474)", "binding signal, log2 normalized intensity": 5.82}
{"Biosequence": "TGTAATAAGGAGTTGTGTGATAAGGAGGGCGCCTAGGGAGATTAGAGTATCGGTCGA", "System under test": "HNF4alpha2 (COS-7 nuclear extract) (Homo sapiens, UniProt P41235 1-474)", "binding signal, log2 normalized intensity": 0.534}
{"Biosequence": "CAAAGGTCATAATTTGATCCAGTGTGCAAAGCCTAGGGAGATTAGAGTATCGGTCGA", "System under test": "HNF4alpha2 (COS-7 nuclear extract) (Homo sapiens, UniProt P41235 1-474)", "binding signal, log2 normalized intensity": 3.35}
{"Biosequence": "TCTAAGACCCATCCCTCAGGGTCCATATCCGCCTAGGGAGATTAGAGTATCGGTCGA", "System under test": "HNF4alpha2 (COS-7 nuclear extract) (Homo sapiens, UniProt P41235 1-474)", "binding signal, log2 normalized intensity": 2.84}
{"Biosequence": "TGATCCAGGGCAAAGGTCATAATTTGATCCGCCTAGGGAGATTAGAGTATCGGTCGA", "System under test": "HNF4alpha2 (COS-7 nuclear extract) (Homo sapiens, UniProt P41235 1-474)", "binding signal, log2 normalized intensity": 6.34}
{"Biosequence": "TGCTCCAGTAAAAGCTCTACCTGACCTCCCGCCTAGGGAGATTAGAGTATCGGTCGA", "System under test": "HNF4alpha2 (COS-7 nuclear extract) (Homo sapiens, UniProt P41235 1-474)", "binding signal, log2 normalized intensity": 2.94}
{"Biosequence": "CTTGTCTTATCAGCAGGGTCTTTTTGACCTGCCTAGGGAGATTAGAGTATCGGTCGA", "System under test": "HNF4alpha2 (COS-7 nuclear extract) (Homo sapiens, UniProt P41235 1-474)", "binding signal, log2 normalized intensity": 4.38}
{"Biosequence": "GTCTCTCAGGCACAGCTCGACCTTTGACCTGCCTAGGGAGATTAGAGTATCGGTCGA", "System under test": "HNF4alpha2 (COS-7 nuclear extract) (Homo sapiens, UniProt P41235 1-474)", "binding signal, log2 normalized intensity": 10.1}
{"Biosequence": "GAATCAATGCCTGATTCCAAAGTCCACTTTGCCTAGGGAGATTAGAGTATCGGTCGA", "System under test": "HNF4alpha2 (COS-7 nuclear extract) (Homo sapiens, UniProt P41235 1-474)", "binding signal, log2 normalized intensity": 6.91}
{"Biosequence": "CTGGTGTGCTTTCTGTCCTCTCAAAGTCCAGCCTAGGGAGATTAGAGTATCGGTCGA", "System under test": "HNF4alpha2 (COS-7 nuclear extract) (Homo sapiens, UniProt P41235 1-474)", "binding signal, log2 normalized intensity": 3.7}
{"Biosequence": "TGCCCCAGGAATGCCTTTTCTTTCATGTTGGCCTAGGGAGATTAGAGTATCGGTCGA", "System under test": "HNF4alpha2 (COS-7 nuclear extract) (Homo sapiens, UniProt P41235 1-474)", "binding signal, log2 normalized intensity": 1.43}
